Origin of values: patent US20210301026A1

- ASSAY SYSTEM: T1, monomeric human CSF1R ectodomain protein (human, UniProt P07333 20-517)
- T1 construct: also called biotinylated monomeric human CSF1R
- TEST METHOD NOTES: SPR Biacore, IgG captured, monomeric CSF1R analyte
PROPERTY LABEL: Kd (pM)
Answer format: numeric, pM implied, no suffix.

BINDER	OBSERVED MEASUREMENT
MH20 (antibody, human IgG4, V domains shown, Deimmunized MH5 derivative, human IgG4(S228P)/Ckappa IgG) VH: QVQLVQSGAEVKKPGSSVKVSCKASGYTFSSSYMIWVRQAPGQGLEWMGDINPYNGGANYAQKFQGRVTITADESTSTAYMELSSLRSEDTAVYYCAREGPYFSNLYVMDYWGQGTLVTVSS VL: EIVLTQSPATLSLSPGERATLSCRASQSVSYEGENYLNWYQQKPGQAPRSLIYAASDRATGIPARFSGSGSGTDFTLTISSPEPEDFAVYYCQLSNEDLLTFGGGTKVEIK	709
MH25 (antibody, human IgG4, V domains shown, Deimmunized MH5 derivative, human IgG4(S228P)/Ckappa IgG) VH: QVQLVQSGAEVKKPGSSVKVSCKASGYTFSSHYMIWVRQAPGQGLEWMGDINPYNGGANYAQKFQGRVTITADESTSTAYMELSSLRSEDTAVYYCAREGPYFSNLYVMDYWGQGTLVTVSS VL: EIVLTQSPATLSLSPGERATLSCRASQSVSYEGENYLNWYQQKPGQAPRLLIYAASNRATGIPARFSGSGSGTDFTLTISSPEPEDFAVYYCQLSNEDLLTFGGGTKVEIK	634

Enquiry: Please report the recorded Kd for MH33 (antibody, human IgG4, V domains shown, Deimmunized MH5 derivative, human IgG4(S228P)/Ckappa IgG) VH: QVQLVQSGAEVKKPGSSVKVSCKASGYTFSSAYMIWVRQAPGQGLEWMGDINPYNGGANYAQKFQGRVTITADESTSTAYMELSSLRSEDTAVYYCAREGPYFSNLYVMDYWGRGTLVTVSS VL: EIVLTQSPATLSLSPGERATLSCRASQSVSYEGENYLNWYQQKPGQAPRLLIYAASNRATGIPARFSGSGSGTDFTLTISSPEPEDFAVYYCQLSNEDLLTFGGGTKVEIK .
Return: 1090
